The compounds listed here are annotated with their pEC50.
STUDY TARGET: Stimulator of interferon genes protein (Homo sapiens)
MEASUREMENT PROTOCOL: Agonist activity at STING R232 mutant (unknown origin) expressed in human THP1-Dual cells assessed as fold change in stimulation activity measured after 24 hrs incubation by QUANTI-Luc4 based microplate reader
Format: cell-based
The read-out pEC50 is expressed as -log10 of concentration in moles per litre.

>  <COMPOUND>
CCC(CNC(=O)c1sc2c(F)c(OC)c(OC)cc2c1F)C(=O)O (centres undefined)

>  <MEASURE>
pEC50

>  <EXPERIMENTAL VALUE>
4.07

$$$$
>  <COMPOUND>
COc1cc2sc(C(=O)NCC(C)C(=O)O)c(F)c2cc1OC (racemic)

>  <MEASURE>
pEC50

>  <EXPERIMENTAL VALUE>
4.48

$$$$
>  <COMPOUND>
COc1cc2cc(C(=O)CCC(=O)O)sc2cc1OC

>  <MEASURE>
pEC50

>  <EXPERIMENTAL VALUE>
5.06

$$$$

CCC(CNC(=O)c1sc2cc(OC)c(OC)cc2c1F)C(=O)O (racemic) yielded pEC50 of 4.76

CC[C@H](CNC(=O)c1sc2cc(OC)c(OC)cc2c1F)C(=O)O yielded pEC50 of 4.92

---

STUDY TARGET: Stimulator of interferon genes protein (Homo sapiens)
MEASUREMENT PROTOCOL: Agonist activity at human STING HAQ variant in human THP1-Blue ISG cells assessed as fold change in stimulation activity measured after 24 hrs incubation by QUANTI-Blue based microplate reader
Assay type: cell-based
pEC50: −log10 of the molar value.
The compounds listed here are annotated with their pEC50.

>  <COMPOUND>
COc1cc2sc(C(=O)N[C@@H](C)CC(=O)O)c(F)c2cc1OC

>  <EXPERIMENTAL VALUE>
< 4.00

$$$$
>  <COMPOUND>
COc1cc2sc(C(=O)NCC3(C(=O)O)CC3)c(F)c2cc1OC

>  <EXPERIMENTAL VALUE>
< 4.00

$$$$
>  <COMPOUND>
COc1cc2sc(C(=O)NCC(F)(F)C(=O)O)c(F)c2cc1Br

>  <EXPERIMENTAL VALUE>
< 4.00

$$$$
>  <COMPOUND>
COc1cc2sc(C(=O)NCCB(O)O)c(F)c2cc1OC

>  <EXPERIMENTAL VALUE>
< 4.00

$$$$
>  <COMPOUND>
COc1cc2sc(C(=O)NCCc3nnn[nH]3)c(F)c2cc1OC

>  <EXPERIMENTAL VALUE>
< 4.00

$$$$
>  <COMPOUND>
CCOc1cc2c(F)c(C(=O)NCCC(=O)O)sc2cc1OC

>  <EXPERIMENTAL VALUE>
< 4.00

$$$$
>  <COMPOUND>
COc1cc2sc(C(=O)N[C@@H](CC(=O)O)C(N)=O)c(F)c2cc1OC

>  <EXPERIMENTAL VALUE>
< 4.00

$$$$
>  <COMPOUND>
COc1cc2sc(C(=O)NCCC(N)=O)c(F)c2cc1OC

>  <EXPERIMENTAL VALUE>
< 4.00

$$$$
>  <COMPOUND>
COc1ccc2c(F)c(C(=O)NCCC(=O)O)sc2c1

>  <EXPERIMENTAL VALUE>
< 4.00

$$$$
>  <COMPOUND>
COc1cc2sc(C(=O)NCCC(=O)O)c(F)c2cc1OC(C)C

>  <EXPERIMENTAL VALUE>
< 4.00

$$$$

// pEC50 (Stimulator of interferon genes protein (Homo sapiens)) for COc1cc2sc(C(=O)NCCC(=O)O)c(C)c2cc1OC = < 4.00

// pEC50 (Stimulator of interferon genes protein (Homo sapiens)) for COc1cc2sc(C(=O)NCCC(=O)O)c(F)c2cc1F = < 4.00

// pEC50 (Stimulator of interferon genes protein (Homo sapiens)) for C#Cc1c(C(=O)NCCC(=O)O)sc2cc(OC)c(OC)cc12 = < 4.00

// pEC50 (Stimulator of interferon genes protein (Homo sapiens)) for COc1cc2sc(C(=O)NCC(F)(F)C(=O)O)c(F)c2cc1OC = < 4.00

// pEC50 (Stimulator of interferon genes protein (Homo sapiens)) for CONC(=O)C(F)(F)CNC(=O)c1sc2cc(OC)c(Br)cc2c1F = < 4.00

// pEC50 (Stimulator of interferon genes protein (Homo sapiens)) for COc1cc2sc(C(=O)NCC(C)(C)C(=O)O)c(F)c2cc1OC = < 4.00

// pEC50 (Stimulator of interferon genes protein (Homo sapiens)) for COc1cc2sc(C(=O)NCCS(N)(=O)=O)c(F)c2cc1OC = < 4.00

---

STUDY TARGET: Stimulator of interferon genes protein (Homo sapiens)
MEASUREMENT PROTOCOL: Agonist activity at STING R232 mutant (unknown origin) expressed in human THP1-Dual cells assessed as fold change in stimulation activity measured after 24 hrs incubation by QUANTI-Luc4 based microplate reader
Format: cell-based
The compounds listed here are annotated with their pEC50.
The read-out pEC50 is expressed as -log10 of concentration in moles per litre.

Example cases with answers are listed next.
>  <COMPOUND>
COc1cc2sc3c(c2cc1OC)C(=O)N(CCC(=O)O)C3=O

>  <pEC50>
4.71

$$$$
>  <COMPOUND>
CCC(CNC(=O)c1[se]c2cc(OC)c(OC)cc2c1F)C(=O)O (centres undefined)

>  <pEC50>
4.88

$$$$

Lab note: next compound to report on.
COc1cc2sc(C(=O)NCC3(C(=O)O)CCC3)c(F)c2cc1OC yielded pEC50 of 4.74

---

STUDY TARGET: Stimulator of interferon genes protein (Homo sapiens, UniProt Q86WV6)
Sequence (Q86WV6 whole entry, looked up, change not shown): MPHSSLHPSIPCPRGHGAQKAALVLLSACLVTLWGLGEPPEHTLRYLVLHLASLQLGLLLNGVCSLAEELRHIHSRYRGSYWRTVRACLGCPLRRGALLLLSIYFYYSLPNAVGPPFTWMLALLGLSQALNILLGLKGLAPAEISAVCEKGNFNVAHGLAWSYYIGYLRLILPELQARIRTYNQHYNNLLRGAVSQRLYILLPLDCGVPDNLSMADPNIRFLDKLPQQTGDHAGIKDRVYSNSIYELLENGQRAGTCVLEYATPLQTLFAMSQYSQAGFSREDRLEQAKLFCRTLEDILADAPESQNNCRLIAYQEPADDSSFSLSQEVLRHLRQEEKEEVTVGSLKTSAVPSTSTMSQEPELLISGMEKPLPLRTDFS
MEASUREMENT PROTOCOL: Agonist activity at human STING HAQ variant in human THP1-Blue ISG cells assessed as fold change in stimulation activity measured after 24 hrs incubation by QUANTI-Blue based microplate reader
Format: cell-based
MEASURE: EC50 (µM)
Please reply with the bare figure in µM and do not write the unit itself.

Example cases with answers are listed next.
>  <COMPOUND>
COc1cc2sc(C(=O)NCCC(=O)O)c(F)c2cc1OC

>  <READING UNIT>
µM

>  <EXPERIMENTAL VALUE>
30.3

$$$$
>  <COMPOUND>
COc1cc2cc(C(=O)CCC(=O)O)sc2cc1OC

>  <READING UNIT>
µM

>  <EXPERIMENTAL VALUE>
4.4

$$$$
>  <COMPOUND>
COc1cc2sc(C(=O)NCCC(=O)O)c(Cl)c2cc1OC

>  <READING UNIT>
µM

>  <EXPERIMENTAL VALUE>
26.5

$$$$
>  <COMPOUND>
CCC(CNC(=O)c1sc2c(F)c(OC)c(OC)cc2c1F)C(=O)O (stereo not given)

>  <READING UNIT>
µM

>  <EXPERIMENTAL VALUE>
3.5

$$$$
>  <COMPOUND>
COc1cc2sc(C(=O)NC[C@@H](C)C(=O)O)c(F)c2cc1OC

>  <READING UNIT>
µM

>  <EXPERIMENTAL VALUE>
4.7

$$$$
>  <COMPOUND>
COc1cc2[se]c(C(=O)NCC(C)C(=O)O)c(F)c2cc1OC (stereo not given)

>  <READING UNIT>
µM

>  <EXPERIMENTAL VALUE>
5.7

$$$$
>  <COMPOUND>
CC[C@H](CNC(=O)c1sc2cc(OC)c(OC)cc2c1F)C(=O)O

>  <READING UNIT>
µM

>  <EXPERIMENTAL VALUE>
5.1

$$$$

COc1cc2sc(C(=O)NCC(C)C(=O)O)c(F)c2cc1OC (racemic) yielded EC50 of 7.1
